# Test system: Human alphaherpesvirus 1
# PROCEDURE_DETAILS: Antiviral activity against HSV1 at 50 uM
# Format: functional
# STUDY_CONDITIONS: Human alphaherpesvirus 1, ACR-29
RECORDED_METRIC: inhibition at 50 µM

Problem: Record lookup: for Human alphaherpesvirus 1, what inhibition at 50 µM belongs to O=C(O)c1cn(COCCO)c2cc([N+](=O)[O-])ccc2c1=O ?
Solution: 77%

Problem: For Human alphaherpesvirus 1, provide inhibition at 50 µM of CCOC(=O)c1cn(COCCO)c2ccc(OC)cc2c1=O please.
Solution: 99%

Problem: I'm curious: which inhibition at 50 µM was measured for CCOC(=O)c1cn(COCCO)c2ccc(Cl)cc2c1=O tested on Human alphaherpesvirus 1?
Solution: 97%

Problem: Param readout = inhibition at 50 µM; param system = Human alphaherpesvirus 1; param query = Cc1ccc2c(=O)c(C(=O)O)cn(COCCO)c2c1 ; response: value
Solution: 79%

Problem: # query: inhibition at 50 µM | item O=C(O)c1cn(COCCO)c2ccc(Br)cc2c1=O | system: Human alphaherpesvirus 1
Solution: 58%

Problem: Notebook: pull reported inhibition at 50 µM for Human alphaherpesvirus 1, entry O=C(O)c1cn(COCCO)c2ccc(Cl)cc2c1=O
Solution: 98%

Problem: Recorded inhibition at 50 µM for CCOC(=O)c1cn(COCCO)c2ccc(F)cc2c1=O with Human alphaherpesvirus 1, please?
Solution: 97%

Problem: Query the reported inhibition at 50 µM for Human alphaherpesvirus 1; item: O=C(O)c1cn(COCCO)c2cc(Cl)ccc2c1=O
Solution: 96%

Problem: Provide the documented inhibition at 50 µM with Human alphaherpesvirus 1 as the system for COc1ccc2c(c1)c(=O)c(C(=O)O)cn2COCCO
Solution: 89%

Problem: What measured inhibition at 50 µM is associated with CCOC(=O)c1cn(COCCO)c2cc(Cl)ccc2c1=O on Human alphaherpesvirus 1?
Solution: 99%

Problem: Find inhibition at 50 µM (Human alphaherpesvirus 1) for the entry Cc1ccc2c(c1)c(=O)c(C(=O)O)cn2COCCO
Solution: 93%

Problem: For Human alphaherpesvirus 1, provide inhibition at 50 µM of O=C(O)c1cn(COCCO)c2ccc(F)cc2c1=O please.
Solution: 70%

Problem: // lookup inhibition at 50 µM | system=Human alphaherpesvirus 1 | key= COc1ccc2c(=O)c(C(=O)O)cn(COCCO)c2c1
Solution: 79%

Problem: Record lookup: for Human alphaherpesvirus 1, what inhibition at 50 µM belongs to O=C(O)c1cn(COCCO)c2ccc([N+](=O)[O-])cc2c1=O ?
Solution: 70%

Problem: # returns recorded inhibition at 50 µM (system: Human alphaherpesvirus 1) for CCOC(=O)c1cn(COCCO)c2cc(OC)ccc2c1=O
Solution: 89%

Problem: Short answer please: inhibition at 50 µM, Human alphaherpesvirus 1, entry CCOC(=O)c1cn(COCCO)c2cc(F)ccc2c1=O
Solution: 65%

Problem: Any idea what inhibition at 50 µM came out for CCOC(=O)c1cn(COCCO)c2ccc(C)cc2c1=O on Human alphaherpesvirus 1?
Solution: 82%

Problem: Given the entry CCOC(=O)c1cn(COCCO)c2ccc([N+](=O)[O-])cc2c1=O , what inhibition at 50 µM was observed with Human alphaherpesvirus 1?
Solution: 95%

Problem: Request body: readout inhibition at 50 µM, system Human alphaherpesvirus 1, query CCOC(=O)c1cn(COCCO)c2cc([N+](=O)[O-])ccc2c1=O . Return the value.
Solution: 77%

Problem: Kindly state the measured inhibition at 50 µM obtained for CCOC(=O)c1cn(COCCO)c2cc(C)ccc2c1=O with Human alphaherpesvirus 1.
Solution: 77%

Problem: Test system Human alphaherpesvirus 1; read-out inhibition at 50 µM; what value for O=C(O)c1cn(COCCO)c2cc(F)ccc2c1=O ?
Solution: 97%

Problem: Notebook: pull reported inhibition at 50 µM for Human alphaherpesvirus 1, entry CCOC(=O)c1cn(COCCO)c2ccc(Br)cc2c1=O
Solution: 84%
